Target: T1, DLK1-hFc fusion protein (extracellular region of human DLK1 fused with human Fc) (human, UniProt P80370 24-303)
T1 construct: The ELISA text says 'DLK1 protein'/'antigen DLK1' coated at 100 ng/well; also called hDLK1; DLK1 antigen
T1 sequence: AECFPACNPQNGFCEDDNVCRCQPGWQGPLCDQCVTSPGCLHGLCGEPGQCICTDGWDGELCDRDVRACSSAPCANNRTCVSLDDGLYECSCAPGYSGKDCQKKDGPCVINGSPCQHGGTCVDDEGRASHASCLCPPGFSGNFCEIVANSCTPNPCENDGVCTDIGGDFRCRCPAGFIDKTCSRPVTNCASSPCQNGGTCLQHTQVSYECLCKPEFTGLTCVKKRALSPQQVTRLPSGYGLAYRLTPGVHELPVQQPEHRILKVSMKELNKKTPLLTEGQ
Assay: ELISA, coated DLK1 antigen, IgG titrated 100 nM to 0.046 nM, GraphPad Prism fit
Examples of binders with documented Kd follow.
Give the number; nM is assumed, so skip it.

Known Kd results, listed for orientation:
| binder | propertyLabel | observedValue |
| --- | --- | --- |
| human anti-DLK1 monoclonal antibody variant 18A5_LS_1A10 (antibody, V domains shown) VH: QVQLVQSGGAVVQPGHSLRLSCEASGFKFKDYGMHWVRQAPGKGLEWLAVISHDGRNKNYADSVKGRLTISRDNSKNTLSFQMNSLRAEDTAVYYCVRDWSYAFDIWGQGTLVTVSS VL: DIQMTQSPSSLSASLGDRVTITCRASQGISSALAWYQQKPGKAPKLLIYAASSLQSGVPSRFSGSGSGTDFTLTINSLQPEDFATYYCQQSYTTPLTFGGGTKVEIK | Kd | 0.047 |
| human anti-DLK1 monoclonal antibody 18A5 (antibody, V domains shown, Converted from scFv to IgG; also called DLK1-18A5) VH: QVQLVQSGGAVVQPGHSLRLSCEASGFKFKDYGMHWVRQAPGKGLEWLAVISHDGRNKNYADSVKGRLTISRDNSKNTLSFQMNSLRAEDTAVYYCVRDWSYAFDIWGQGTLVTVSS VL: DIQMTQSPSFLSASVGDRVNITCRASQDISRRLAWYQQKPGKAPKLLIYGAASLQSAVASRFSGSGSGTEFTLTISSLQPEDFANYYCQQIYTTPLTFGGGTKVEIK | Kd | 0.52 |
| human anti-DLK1 monoclonal antibody 20D3 (antibody, V domains shown, Converted from scFv to IgG) VH: QMQLVQSGGGLVQPGRSLRLSCAASGFTFDDYAMHWVRQAPGKGLEWVSGISWNSGSIGYADSVKGRFTISRDNAKNSLYLQMNSLRAEDTAVYYCTKGPGLATGKVYFNSWGQGTQVTVSS VL: DIQMTQSPSSVSASVGDRVTITCRASQRISSWLAWYQQKPGRAPKLLIHSASTLHNGVPSRFSGSASGTDFTLTISSLQPEDFAIYYCQQGHSFPYTFGQGTKLDIK | Kd | 54 |

# context switch: different binder, same Kd
Ask | Endpoint output: Kd of human anti-DLK1 monoclonal antibody 27F7 (antibody, V domains shown, Converted from scFv to IgG) VH: QMQLVESGGGLVKPGGSLTLSCDATGFNFGSYYMNWVRQAPGKGLEWLAHISSTGRTIYYADSVKGRFTISRDNAKSSLDLQMNSLRAEDTAVYYCARDQGYPFGMDVWGHGTTVTVSS VL: QLVLTQPSSVSGAPGQRVTISCTGSSSNIGAGYDVDWYQQLPGTAPKLLIYGNTNRPSGVPDRFSGSKSGTSASLAITGLQAEDDSDYYCQSYDSSLSAWVFGGGTKLTVL . Value?
Reply | 0.22
